Biological target: human TLR7 (Homo sapiens (Human), UniProt Q9NYK1)
Sequence (Q9NYK1 27-1049): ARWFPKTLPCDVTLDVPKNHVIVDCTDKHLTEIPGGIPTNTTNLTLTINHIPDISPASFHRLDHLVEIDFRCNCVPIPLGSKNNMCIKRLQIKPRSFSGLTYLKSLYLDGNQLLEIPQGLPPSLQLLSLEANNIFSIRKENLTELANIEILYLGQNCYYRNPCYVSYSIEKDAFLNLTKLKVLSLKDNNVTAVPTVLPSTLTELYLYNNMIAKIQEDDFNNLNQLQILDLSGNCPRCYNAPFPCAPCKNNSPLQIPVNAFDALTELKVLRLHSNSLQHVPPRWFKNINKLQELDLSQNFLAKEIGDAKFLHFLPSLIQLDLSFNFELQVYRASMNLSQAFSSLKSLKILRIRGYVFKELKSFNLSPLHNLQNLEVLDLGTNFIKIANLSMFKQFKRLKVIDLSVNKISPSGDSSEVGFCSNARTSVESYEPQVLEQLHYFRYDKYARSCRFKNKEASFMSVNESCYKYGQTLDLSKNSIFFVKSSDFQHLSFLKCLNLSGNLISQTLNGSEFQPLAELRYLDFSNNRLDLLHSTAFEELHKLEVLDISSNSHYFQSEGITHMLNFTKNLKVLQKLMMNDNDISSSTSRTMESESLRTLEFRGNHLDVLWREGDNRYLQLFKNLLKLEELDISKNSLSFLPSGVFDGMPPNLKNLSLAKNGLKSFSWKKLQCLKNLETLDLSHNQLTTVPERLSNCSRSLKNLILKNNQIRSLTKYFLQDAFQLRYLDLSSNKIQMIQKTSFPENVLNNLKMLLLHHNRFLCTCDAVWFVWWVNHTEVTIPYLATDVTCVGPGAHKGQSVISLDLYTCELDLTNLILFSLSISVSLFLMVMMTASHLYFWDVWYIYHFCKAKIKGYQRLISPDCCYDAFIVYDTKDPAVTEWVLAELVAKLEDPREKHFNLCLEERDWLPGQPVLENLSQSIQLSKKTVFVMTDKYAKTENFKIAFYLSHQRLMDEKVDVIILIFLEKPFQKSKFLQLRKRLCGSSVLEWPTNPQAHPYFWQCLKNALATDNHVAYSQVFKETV
Assay: HEK-Blue human TLR7 cells NF-κB SEAP reporter assay
Conditions: stimulation for 20 hours
RECORDED_METRIC: EC50 (µM)

> print(dat)
                                smiles.data  observed
1  CCCN(CCC)C(=O)C1=Cc2ccc(-c3cccc(S(=O)(=O)NCCCCCCO)c3)cc2N=C(N)C1        12

a = CCCN(CCC)C(=O)C1=Cc2ccc(-c3ccc(OC)c(S(=O)(=O)N4CC[C@@H](O)C4)c3)cc2N=C(N)C1
b = CCCN(CCC)C(=O)C1=Cc2ccc(-c3cncc(S(=O)(=O)N4CCNCC4)c3)cc2N=C(N)C1
Given a and b , report the one with the higher recorded EC50. Give the label of your selection. a

The reported numbers originate from patent US9890124B2.
